// data source = ChEMBL document CHEMBL3593164

Item-by-item account of RFU
System: Mycobacterium tuberculosis
Assay: Inhibition of multidrug resistance efflux pump in Mycobacterium tuberculosis H37Rv using ethidium bromide as substrate assessed as relative final fluorescence at 1/2 MIC by real-time fluorometry

Some solved cases for reference:
input: Name the reported RFU value associated with the compound CN1CCCCC1CCn1c2ccccc2c2ccccc21 (racemic)
output: 0.33

input: Next record, please: CN1CCCCC1CCn1cnc2ccccc21 (racemic)
output: 1

input: Next record, please: CSc1ccc2c(c1)N(CCC1CCCCN1C)c1ccccc1S2 (stereo not given)
output: 0.27

input: Next record, please: CN1CCCCC1CCn1ccc2ccc(Br)cc21 (racemic)
output: 1.22

Next item in the queue.
input: Name the reported RFU value associated with the compound COc1ccc(N(CCC2CCCCN2C)C(C)C)cc1OC (racemic)
output: 0.84
